// data source = PubChem BioAssay (NCATS)

- TARGET OR TEST SYSTEM: Glucocorticoid receptor (Homo sapiens)
- ASSAY OVERVIEW: GR-EFC Redistribution (AID 451); further: potency means the concentration at half of the fitted maximal effect
- RUN PARAMETERS: CHO-K1 GR-EFC translocation, beta-gal luminescence, 2 h
Calls of active or inactive are those of the source. The call rests on the fitted dose curve.
# Potency per entry
PROPERTY LABEL: Potency

{"columns": ["COMPOUND STRUCTURE STRING", "ENDPOINT RESULT"],
 "data": [
  ["Oc1ccc(Cl)cc1C=Nc1cnc2ccccc2c1", "> 9.22 µM (inactive)"],
  ["c1ccc(CCCNc2nnnc3ccccc23)cc1", "> 9.22 µM (inactive)"],
  ["CC(=O)C=NCC(=O)O", "> 9.22 µM (inactive)"],
  ["NC(=O)c1ncn([C@@H]2O[C@@H](CO)[C@@H](O)[C@H]2O)c1O", "> 46 µM (inactive)"],
  ["Cc1nc([N+](=O)[O-])cn1-c1nc2ccccn2c1[N+](=O)[O-]", "> 9.22 µM (inactive)"],
  ["N#Cc1c(NC(=O)C(F)(F)F)sc2c3c(=O)c4ccccc4c(=O)c=3oc3ccccc3c12", "> 9.22 µM (inactive)"]
]}

###

Entries and their activity change % (negative = inhibition) values follow.
- TARGET OR TEST SYSTEM: Thyroid hormone receptor beta (Homo sapiens)
- ASSAY OVERVIEW: qHTS assay for small molecule antagonists of thyroid hormone receptor beta signaling (AID 588547);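 further: cells stimulated with 0.4 nM T3 agonist during compound exposure; on the % scale 0 is the no-effect control and ±100 the full control effect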
- RUN PARAMETERS: TR-UAS-bla HEK293, beta-lactamase ratio, antagonist mode, 18 h
Results filed as inconclusive are left out.
PROPERTY LABEL: activity change % (negative = inhibition) (%)

{"columns": ["COMPOUND", "UNIT TAG", "ENDPOINT RESULT"],
 "data": [
  ["Cc1ccc2ccc3cccc4ccc1c2c34", "%", 1.52],
  ["CCC(Cl)CC(Cl)C(Cl)C(Cl)C(Cl)C(C)Cl (stereo not drawn)", "%", -1.45],
  ["CCNC(=S)NCC", "%", -1.42],
  ["CCOC(=O)C1OC1c1ccccc1 (stereo not drawn)", "%", 6.36],
  ["Cc1cc2nc(N)sc2cc1C", "%", -0.19],
  ["O=C1c2ccccc2C(=O)C1(O)O", "%", -4.45],
  ["Nc1ccc2c(c1)C(=O)c1ccccc1C2=O", "%", -15.9],
  ["CC(C)(C)C(=O)C1C(=O)c2ccccc2C1=O", "%", 12.3]
]}

###

- ASSAY OVERVIEW: Stat Signaling Pathway (AID 446);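 further: ME-180 cervical cancer cells given 40 pM IL-6 alongside compound; SIE-controlled beta-lactamase reporter measured as 460/530 nm FRET emission ratio; on the % scale 0 is the no-effect control and ±100 the full control effect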
- RUN PARAMETERS: ME-180 (cervical carcinoma) SIE beta-lactamase reporter, IL-6 stimulated, 5 h; at 7.69 µM (top of the series) unless noted
Results filed as inconclusive are left out. Calls of active or inactive are those of the source. Calls come from the whole dose curve; as a rule, active = well fitted curve in either direction with a large enough effect (not every such curve was filed as active); inconclusive = small, poorly fitted or top-dose-only effect, or another doubt; inactive = flat fitted curve, though single readings scatter.
PROPERTY LABEL: activity, negative = inhibition

{"columns": ["COMPOUND STRUCTURE STRING", "ENDPOINT RESULT"],
 "data": [
  ["CN(C)CCCN1c2ccc3ccccc3c2Sc2cccc(Cl)c21", "2.06% (inactive)"],
  ["Cc1ccc2ccccc2c1CSc1nc(N)nc2c1ncn2CC(C)C", "-19.8% (inactive)"],
  ["CCCc1cc(COC)c(C#N)c(=O)[nH]1", "3.43% (inactive)"],
  ["c1ccc(CO[C@H]2NCCN2Cc2ccccc2)cc1", "12.8% (inactive)"],
  ["Nc1ncnc2c1nc(Sc1ccc(Cl)cc1)n2[C@@H]1O[C@H]2COP(=O)(O)O[C@@H]2[C@H]1O", "5.32% [at 38 µM] (inactive)"],
  ["COc1ccc(Oc2ncc3nc(C)c(=O)n(-c4ccc(OC)cc4)c3n2)cc1", "-16.4% (inactive)"]
]}
